Attribution: ChEMBL document CHEMBL2380235

Entries annotated with measured Ratio Ke
- Species on record: Homo sapiens
- procedure.details: Selectivity ratio of Ke for human mu opioid receptor to Ke for human kappa opioid receptor
# respond with the number and nothing more

structure.smiles.string: COc1cc(C(=O)N[C@H](CN2CCN(c3cccc(O)c3)[C@@H](C)C2)C(C)C)ccc1Oc1cccc(C)c1
observable: Ratio Ke
value: 140

Output measured Ratio Ke for this item: `CC(C)[C@@H](CN1CCN(c2cccc(O)c2)[C@@H](C)C1)NC(=O)c1ccc(Oc2ccccc2O)c(Cl)c1`
7

Please supply the value of reported Ratio Ke for the item `CC(C)[C@@H](CN1CCN(c2cccc(O)c2)[C@@H](C)C1)NC(=O)c1ccc(Oc2cccc(F)c2)cc1`
20

Find the measured Ratio Ke of `CCCCc1ccc(C(=O)N[C@H](CN2CCN(c3cccc(O)c3)[C@@H](C)C2)C(C)C)cc1` and report it.
7.5
